System: BDF1 mice, P388 leukemia ip, median survival T/C
Experiment: NCI In Vivo Anticancer Drug Screen. Data for tumor model P388 Leukemia (intraperitoneal) in B6D2F1 (BDF1) mice
Details: endpoint: median survival time; dose: 400.0 mg/kg/injection; schedule: Q04DX003 (ip); vehicle: saline with Tween-80; higher = longer survival
Inconclusive results and toxic doses are left out.
PROPERTY_LABEL: T/C

Documented T/C of OCCOc1cccc(OCCO)c1 : 104 % of control

Documented T/C of O=C(Nc1cccc(Cl)c1)Nc1ccccc1Cl : 91 % of control

Documented T/C of CC(=O)c1c(-c2ccccc2)noc1C : 100 % of control

Documented T/C of CN1C(=O)NC(C)(c2cccs2)C1=O (centres undefined) : 94 % of control

Documented T/C of CSCSCC(CO)NS(=O)(=O)c1ccc(C)cc1 (centres undefined) : 100 % of control

Documented T/C of CN1C=NNc2ccc(Cl)cc2C1=O : 109 % of control

Documented T/C of COc1ccc(C(C)c2ccccc2)cc1 (centres undefined) : 100 % of control

Documented T/C of O=C(CC(NC(=O)OCc1ccccc1)c1nn[nH]n1)OCc1ccccc1 (centres undefined) : 95 % of control

Documented T/C of CC(C)C(C(=O)c1ccccc1)c1ccccc1 (centres undefined) : 100 % of control

###

Tested on: BDF1 mice, P388 leukemia ip, median survival T/C
Experiment: NCI In Vivo Anticancer Drug Screen. Data for tumor model P388 Leukemia (intraperitoneal) in B6D2F1 (BDF1) mice
Conditions: endpoint: median survival time; dose: 25.0 mg/kg/injection; schedule: Q01DX009 (ip); vehicle: saline with Tween-80; higher = longer survival
Inconclusive results and toxic doses are left out.
Assignment: determine reported T/C for the given molecules.

Documented T/C of CCOC(=O)C(CNc1ccccc1)C(=O)OCC : 95 % of control

Documented T/C of C[Si]1(C)CCCSC1 : 91 % of control

Documented T/C of FC(F)(F)c1cccc(-c2nc3nc(Cl)c(Cl)nc3[nH]2)c1 : 99 % of control

###

Tested on: BDF1 mice, P388 leukemia ip, median survival T/C
Assay: NCI In Vivo Anticancer Drug Screen. Data for tumor model P388 Leukemia (intraperitoneal) in B6D2F1 (BDF1) mice
Conditions: endpoint: median survival time; dose: 25.0 mg/kg/injection; schedule: Q01DX009 (ip); vehicle: saline
Inconclusive results and toxic doses are left out. Rule for the calls: active = survival T/C of 150% or more; inactive = T/C below 125% in these data.
Mark one answer only. Choices: label 1 (active), label 0 (inactive)

Which outcome was entered for the molecule CN(CCO)/N=N/c1nc[nH]c1C(N)=O in this test?
label 0

Which outcome was entered for the molecule Cc1c2c(O)c(O)c(O)cc2c[n+]2ccccc12 in this test?
label 0

Which outcome was entered for the molecule [N-]=[N+]=NCC(=O)NCc1cnccn1 in this test?
label 0

Which outcome was entered for the molecule C=CC[n+]1ccc(/C=N\NC(N)=S)c2ccccc21 in this test?
label 0

Which outcome was entered for the molecule COc1cc2ccc3ccncc3c2cc1OC in this test?
label 0

Which outcome was entered for the molecule CC(=O)OCc1cc2cc(O)ccc2nc1C in this test?
label 0

Which outcome was entered for the molecule NC(Cc1ccc(O)c(I)c1)C(=O)O (configuration not stated) in this test?
label 0

Which outcome was entered for the molecule O=NN(CCCl)C(=O)NC1CCCCC1 in this test?
label 1

Which outcome was entered for the molecule COc1ccc(C(=O)CC(c2ccc(OC)c(OC)c2)c2c(O)c3ccccc3oc2=O)cc1OC (configuration not stated) in this test?
label 0

Which outcome was entered for the molecule NNC(=O)c1ccccn1 in this test?
label 0

Which outcome was entered for the molecule CC1(O)Cn2c(nc3nccnc32)S1 (configuration not stated) in this test?
label 0

Which outcome was entered for the molecule CSc1ncc2n1C=CN(C(=O)c1ccc([N+](=O)[O-])cc1)C2O (configuration not stated) in this test?
label 0

Which outcome was entered for the molecule CC1C[N+](C)=C2CCCCC2=C1N (configuration not stated) in this test?
label 0

Which outcome was entered for the molecule CCN(CC)CCSC(=O)C(O)(c1ccccc1)C1CCCC1 (configuration not stated) in this test?
label 0

Which outcome was entered for the molecule CC1Cc2ccccc2SC1(C)C (configuration not stated) in this test?
label 0

Which outcome was entered for the molecule COc1ccc(/C=C/C(=O)c2ccc3cc(OC)c(OC)cc3c2)cc1OC in this test?
label 0

Which outcome was entered for the molecule COc1cc2c(cc1OCc1ccccc1)C(C#N)N(C(=O)c1ccccc1)C=C2 (configuration not stated) in this test?
label 0

###

Assignment: determine reported T/C for the given compounds.
Tested on: BDF1 mice, P388 leukemia ip, median survival T/C
Experiment: NCI In Vivo Anticancer Drug Screen. Data for tumor model P388 Leukemia (intraperitoneal) in B6D2F1 (BDF1) mice
Conditions: endpoint: median survival time; dose: 400.0 mg/kg/injection; schedule: Q01DX009 (ip); vehicle: saline with Tween-80; higher = longer survival
Toxic doses and inconclusive results are not listed.

Documented T/C of CC(=O)OCC(CCn1ccc(=O)[nH]c1=O)COC(C)=O : 90 % of control

Documented T/C of COc1ccc(C2CCc3cc4c(cc3C2=O)OCO4)cc1OC (stereo unspecified) : 100 % of control

Documented T/C of COc1ccc(/C=C/C(=O)c2ccccc2)cc1Br : 113 % of control

Documented T/C of CCCCC(CC)COC(OCC(CC)CCCC)C(OCC(CC)CCCC)OCC(CC)CCCC (stereo unspecified) : 90 % of control

Documented T/C of Cc1ccccc1NC=O : 120 % of control

Documented T/C of CCOC(=O)c1ccc(N)c(C(O)(C(F)(F)F)C(F)(F)F)c1 : 104 % of control

###

Assignment: determine reported T/C for the given compounds.
Tested on: BDF1 mice, P388 leukemia ip, median survival T/C
Assay: NCI In Vivo Anticancer Drug Screen. Data for tumor model P388 Leukemia (intraperitoneal) in B6D2F1 (BDF1) mice
Conditions: endpoint: median survival time; dose: 6.25 mg/kg/injection; schedule: Q04DX003 (ip); vehicle: saline with Tween-80; higher = longer survival
Toxic doses and inconclusive results are not listed.

// assay BDF1 mice, P388 leukemia ip, median survival T/C, entry NNc1n[nH]c(=S)n1N , T/C value = 104 % of control

// assay BDF1 mice, P388 leukemia ip, median survival T/C, entry CC(C)C(=O)c1ccco1 , T/C value = 95 % of control

// assay BDF1 mice, P388 leukemia ip, median survival T/C, entry COc1cc(C=O)c(C=O)cc1OC , T/C value = 110 % of control

###

Test system: BDF1 mice, P388 leukemia ip, median survival T/C
Assay: NCI In Vivo Anticancer Drug Screen. Data for tumor model P388 Leukemia (intraperitoneal) in B6D2F1 (BDF1) mice
Settings: endpoint: median survival time; dose: 100.0 mg/kg/injection; schedule: Q01DX009 (ip); vehicle: Klucel (hydroxypropylcellulose) (HPC); higher = longer survival
Inconclusive results and toxic doses are left out.
Assignment: determine reported T/C for the given compounds.

Documented T/C of CCOC(=O)c1cnc(SC)nc1NCc1ccccc1Cl : 100 % of control

Documented T/C of O=[N+]([O-])c1c(Cl)cccc1-c1c[nH]cc1Cl : 95 % of control

Documented T/C of C[C@H]1CCC/C=C/[C@@H]2C[C@H](O)C[C@H]2[C@H](O)/C=C/C(=O)O1 : 90 % of control

Documented T/C of COC(=O)CCN(c1ccccc1)S(=O)(=O)c1ccc(C)cc1 : 104 % of control

Documented T/C of COc1ccccc1/C=N\NC(C)=O : 92 % of control

Documented T/C of COc1ccc(C)cc1CN1NC(=O)CC1=N : 100 % of control

###

Test system: BDF1 mice, P388 leukemia ip, median survival T/C
Assay: NCI In Vivo Anticancer Drug Screen. Data for tumor model P388 Leukemia (intraperitoneal) in B6D2F1 (BDF1) mice
Conditions: endpoint: median survival time; dose: 100.0 mg/kg/injection; schedule: Q04DX003 (ip); vehicle: saline; higher = longer survival
Toxic doses and inconclusive results are not listed. Non-standard residues stand in square brackets, D forms with d. Residues, ends and D or L forms follow the SMILES beside them. *: point of attachment. NMeY = CN[CH](Cc1ccc(O)cc1)C(=O)O; Bn = c1ccc(C*)cc1
PROPERTY_LABEL: T/C

// assay BDF1 mice, P388 leukemia ip, median survival T/C, entry CNC(Cc1ccc(OCc2ccccc2)cc1)C(=O)NC(CC(C)C)C(=O)OC (stereo not drawn) (H-[NMeY](Bn)-Leu-OMe; configuration not given here) , T/C value = 111 % of control

// assay BDF1 mice, P388 leukemia ip, median survival T/C, entry COc1cc2c(cc1OCc1ccccc1)C(C#N)N(C(=O)c1ccccc1)C=C2 (stereo not drawn) , T/C value = 97 % of control

// assay BDF1 mice, P388 leukemia ip, median survival T/C, entry O=C(O)COCC(F)(F)C(F)(F)C(F)(F)COCC(=O)O , T/C value = 100 % of control

// assay BDF1 mice, P388 leukemia ip, median survival T/C, entry NC(=O)NOCC(N)C(=O)O (stereo not drawn) , T/C value = 104 % of control

// assay BDF1 mice, P388 leukemia ip, median survival T/C, entry Nc1noc(N)n1 , T/C value = 109 % of control

// assay BDF1 mice, P388 leukemia ip, median survival T/C, entry CC(=O)NC(C)C(C)C (stereo not drawn) , T/C value = 100 % of control

// assay BDF1 mice, P388 leukemia ip, median survival T/C, entry c1ccc(-c2cscc2-c2ccccc2)cc1 , T/C value = 100 % of control

// assay BDF1 mice, P388 leukemia ip, median survival T/C, entry CC1(C)OCC(=NNC(N)=O)CO1 , T/C value = 98 % of control

// assay BDF1 mice, P388 leukemia ip, median survival T/C, entry CC(C)(C)OC(=O)NCC(=O)NNC(=O)OC(C)(C)C , T/C value = 104 % of control

// assay BDF1 mice, P388 leukemia ip, median survival T/C, entry CCCCNP(=O)(N1CC1C)N1CC1C (stereo not drawn) , T/C value = 90 % of control

// assay BDF1 mice, P388 leukemia ip, median survival T/C, entry CC(O)C(C)(C)CO (stereo not drawn) , T/C value = 100 % of control

// assay BDF1 mice, P388 leukemia ip, median survival T/C, entry O=C1CCCN1.O=C1CCCN1.[Br][Co][Br] , T/C value = 111 % of control

// assay BDF1 mice, P388 leukemia ip, median survival T/C, entry COC(=O)C1(C)CCC(c2ccc(OC)cc2)CC1=O (stereo not drawn) , T/C value = 100 % of control

// assay BDF1 mice, P388 leukemia ip, median survival T/C, entry CC#CCOCC(O)CCl (stereo not drawn) , T/C value = 95 % of control

// assay BDF1 mice, P388 leukemia ip, median survival T/C, entry CCCC[N+](CCCC)(CCCC)CCCC.Cc1ccc([SH2+])c([SH2+])c1.Cc1ccc([SH2+])c([SH2+])c1.[Ni+3] , T/C value = 115 % of control

// assay BDF1 mice, P388 leukemia ip, median survival T/C, entry COc1cc2ccc(CN3CCCC3C(=O)OCc3ccccc3)cc2cc1OC (stereo not drawn) , T/C value = 109 % of control

// assay BDF1 mice, P388 leukemia ip, median survival T/C, entry O=S(=O)(O)CCN1CCN(CCO)CC1 , T/C value = 91 % of control

// assay BDF1 mice, P388 leukemia ip, median survival T/C, entry COc1ccc(NC(=O)C(C)C(C)=O)cc1 (stereo not drawn) , T/C value = 100 % of control
